test system: KM12 colon; test: NCI tumour cell line growth inhibition, 48 h
Criterion: TGI meeting or surpassing 40 µM. Met: rule met. Not met: rule not met.

Identify whether the reported TGI of the following molecule is 40 µM or greater: COc1ccc(NC(C)c2ccncc2)cc1 (stereo not given) rule met

Identify whether the reported TGI of the following molecule is 40 µM or greater: CC(C)C(N)C(=O)NC(CCC(=O)NCCCCC(N)C(=O)NCCCNc1ccc([N+](=O)[O-])c2[nH]c3ccccc3c(=O)c12)C(N)=O (stereo not given) rule met

Identify whether the reported TGI of the following molecule is 40 µM or greater: Cc1ccccc1/C=C/C(=O)c1ccccc1 rule met

Identify whether the reported TGI of the following molecule is 40 µM or greater: CSc1ccc(N(C)c2nc(C)nc3c2CCC3)cc1 rule not met

Identify whether the reported TGI of the following molecule is 40 µM or greater: COc1cccc2c1OCC1Cc3ccccc3OC21 (stereo not given) rule met

Identify whether the reported TGI of the following molecule is 40 µM or greater: CCOC(=O)C1CCC(=O)N1C(=O)c1ccccc1Cl (stereo not given) rule met

Identify whether the reported TGI of the following molecule is 40 µM or greater: C/C(=C\CO)CC/C=C(\C)CNc1ccc([N+](=O)[O-])cc1 rule met

Identify whether the reported TGI of the following molecule is 40 µM or greater: COc1cc(/C=C2\CCC(C)/C(=C\c3cc(OC)c(OC)c(OC)c3)C2=O)cc(OC)c1OC (stereo not given) rule not met

Identify whether the reported TGI of the following molecule is 40 µM or greater: CC(C)[Si](OC/C(=C/COC(C)(C)C)[C@H]1CC=C(C(=O)c2ccccc2N2CN(C)C(=O)N(C)C2)C1)(C(C)C)C(C)C rule met

// provenance: PubChem BioAssay (NCI)
